Molecular target: T1, hErbB3.mFc (soluble dimeric human ErbB3 extracellular domain fused to mouse Fc) (human)
T1 construct: called dimeric
T1 chain: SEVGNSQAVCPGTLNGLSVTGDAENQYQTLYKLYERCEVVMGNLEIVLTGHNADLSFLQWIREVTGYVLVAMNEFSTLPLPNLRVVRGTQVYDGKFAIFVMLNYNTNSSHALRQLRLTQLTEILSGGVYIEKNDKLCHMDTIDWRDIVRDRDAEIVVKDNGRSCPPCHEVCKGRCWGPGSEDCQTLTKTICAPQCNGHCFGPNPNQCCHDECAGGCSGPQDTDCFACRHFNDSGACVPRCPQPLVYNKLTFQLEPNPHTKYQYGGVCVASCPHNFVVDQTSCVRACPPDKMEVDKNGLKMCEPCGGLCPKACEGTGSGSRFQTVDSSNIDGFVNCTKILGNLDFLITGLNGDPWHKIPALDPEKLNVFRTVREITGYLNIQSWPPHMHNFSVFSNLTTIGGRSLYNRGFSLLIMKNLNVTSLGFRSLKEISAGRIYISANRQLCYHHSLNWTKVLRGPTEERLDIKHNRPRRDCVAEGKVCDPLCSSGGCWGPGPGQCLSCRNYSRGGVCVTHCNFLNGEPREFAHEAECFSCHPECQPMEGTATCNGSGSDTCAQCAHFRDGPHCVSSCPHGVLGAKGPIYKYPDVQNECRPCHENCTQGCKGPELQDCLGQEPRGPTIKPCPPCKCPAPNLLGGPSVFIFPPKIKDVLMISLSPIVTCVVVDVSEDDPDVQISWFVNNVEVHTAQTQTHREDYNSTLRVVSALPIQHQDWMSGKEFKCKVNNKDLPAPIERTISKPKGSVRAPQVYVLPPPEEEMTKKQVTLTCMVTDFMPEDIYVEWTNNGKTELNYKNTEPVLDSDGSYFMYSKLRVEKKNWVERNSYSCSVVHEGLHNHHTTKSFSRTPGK
Test: SPR (Biacore), 25 C, mAb capture format
reported.property: kon (M⁻¹ s⁻¹)
Report the value in M⁻¹ s⁻¹ with no unit label.

Problem: What kon value was documented for this binder, H4H2132P (antibody, V domains shown, Fully human, human IgG4 Fc (H4H prefix)) VH: EVQLVESGGGVVRPGGSLRLSCAASGFTFDDYGMSWVRQFPGKGLEWVSSIDGNGGNTGYSDSVKGRFTISRDNAKNSLHLQMNSLRAEDTALYHCARDPDYDSVWGNYRPFDYWGQGTLVTVSS VL: DIVMTQSPDSLAVSLGERATINCKSSQSVLSSSNDNNYLAWFQQKPGQPPNLLIYWASTRDSGVPDRFSASGSGTDFTLAISSLQAEDVAVYYCHQYYSSPPTFGQGTKVEIKR ?
Solution: 3.49e+06

Problem: What kon value was documented for this binder, H4H2092P (antibody, V domains shown, Fully human, human IgG4 Fc (H4H prefix)) VH: EVQLVESGGGVVRPGGSLRLSCAASGFTFEDYGMNWVRQVPGKGLEWVSGTNWNGGITGYTGSVKGRFTISRDNAKNSLYLQMNSLRAEDTALYHCARDSGDQDAFDIWGQGTMVTVSS VL: DIQLTQSPSFLSASVGDRVTITCWASQDISSYLAWYQQKPGKAPKLLIYAASTFQSGVPSRFSGSGSGTEFTLTISNLQPEDFATYYCQQLDSYPLSFGGGTKVEIKR ?
Solution: 5.16e+06

Problem: What kon value was documented for this binder, H4H2147P (antibody, V domains shown, Fully human, human IgG4 Fc (H4H prefix)) VH: QVQLVESGGGLVKPGGSLRLSCAASGFTFSDFNMGWIRQAPGKGLEWVSHISGSGNVIYYADSVKGRFAISRDNGKNSLYLQVNSLRAEDTAVYYCARDIGDSDAFDIWGQGTMVTVSS VL: DIQLTQSPSFLSASVGDRVTITCWASQDISSYLAWYQQKPGKAPKLLIYGASTLESGVPSRFSGSGSGTEFTLTISSLQPEDVATYYCQQLNTYPLTFGGGTKVEIKR ?
Solution: 3.33e+06

Please examine the following record next.
Problem: What kon value was documented for this binder, H4H2154P (antibody, V domains shown, Fully human, human IgG4 Fc (H4H prefix)) VH: QVQLQESGPGLINPSQTLSVTCTVSGGSISSGGYYWTWIRQHPGKGLEWIGYISYSGNTNYNPSLKSRVTISVDTAKNQFSLKLSSVTAADTAVYFCARDSDVDTAMVDGIDIWGQGTMVTVSS VL: DIQMTQSPSSVSASVGDRVTITCRASQDISSWLAWYQQKPGRAPKLLIYTASSLQSGVPSRFSGSGSGTDFTLTISSLQPEDFATYFCQQANSFPFTFGPGTKVDIKR ?
Solution: 3.25e+06
